Form field: pKd (one value per entry).
- assayed-target: T1, cynomolgus IL-36γ, truncated (cynomolgus macaque (Macaca fascicularis), UniProt Q9NZH8 18-167 (human entry), limits assumed)
- T1 construct: Untagged after removal of the His-SUMO tag; also called cynomolgus IL-36 gamma; cyIL-36gamma
- T1 chain: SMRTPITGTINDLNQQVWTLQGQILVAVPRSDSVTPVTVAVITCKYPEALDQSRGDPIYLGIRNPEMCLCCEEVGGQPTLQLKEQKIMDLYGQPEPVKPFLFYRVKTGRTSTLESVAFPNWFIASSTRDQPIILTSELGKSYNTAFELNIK
- assay-details: SPR, Biacore, 1:1 Langmuir fit
Notebook: values listed as pKd are -log10 of the concentration (mol/L).

Input: Entry 144L249B (antibody, V domains shown, Mouse monoclonal from hybridoma; mouse IgG heavy and lambda light chain; also called mouse antibody 144L249B) VH: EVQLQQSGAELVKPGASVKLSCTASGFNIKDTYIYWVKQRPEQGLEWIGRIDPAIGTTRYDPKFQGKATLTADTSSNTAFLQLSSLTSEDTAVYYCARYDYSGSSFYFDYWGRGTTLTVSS VL: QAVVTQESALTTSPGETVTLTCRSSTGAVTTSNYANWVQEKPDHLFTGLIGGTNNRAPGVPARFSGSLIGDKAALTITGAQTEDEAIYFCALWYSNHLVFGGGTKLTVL needs its pKd filled in; supply it.
Output: 9.54
